Assayed target: Alpha-2C adrenergic receptor (Homo sapiens)
Experiment notes: compounds altering alpha2C-coupled GIRK flux – cell-based, HEK293 alpha2C/GIRK1/2, thallium flux, primary screen (AID 624);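 also: slope of fluorescence ratio to pre-addition baseline per second over 15 to 24 s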
Test parameters: thallium flux BTC fluorescence, at 10 µM, actives lie on both sides
Measured metric: slope
Enter a number only.

The compound listed as COc1ccc(NC(=O)c2cnc3n(c2=O)CCS3)cc1OC has a reported slope of 0.00659

The compound listed as CCOC(=O)c1cc2ccc(OC)c(OC)c2c(=O)s1 has a reported slope of 0.00363

The compound listed as Cc1cccc(C)c1NC(=O)c1cc(S(=O)(=O)N2CCOCC2)ccc1F has a reported slope of 0.00325

The compound listed as Cc1ccc2nc(-c3ccc(S(=O)(=O)N4CCOCC4)cc3)cn2c1 has a reported slope of 0.00713

The compound listed as Cc1ccc(C)n1-n1c(C)nc2sc(-c3ccccc3)cc2c1=O has a reported slope of 0.00611

The compound listed as COC(=O)CSc1nnc(CSc2nc(C)cc(C)n2)n1Cc1ccco1 has a reported slope of 0.00459

The compound listed as Cc1ccc(-c2nc(N)n(C(=O)c3cccnc3)n2)cc1 has a reported slope of 0.00801

The compound listed as O=C(Nc1ccc(F)cc1)NC1CCN(Cc2nnnn2Cc2ccco2)CC1 has a reported slope of 0.00571

The compound listed as COCCn1c(=O)[nH]c2cc(C(=O)N3CCN(Cc4ccc5c(c4)OCO5)CC3)ccc2c1=O has a reported slope of 0.00392

The compound listed as COc1ccc(N=C2C(=O)Nc3ccccc32)cc1 has a reported slope of 0.00431

The compound listed as Cc1cc(OCC(O)CN2CCN(CCO)CC2)ccc1C(C)C (stereo unspecified) has a reported slope of 0.00431

The compound listed as COc1ccccc1N1CCN(C(=O)c2cc(-c3ccc(Cl)c(Cl)c3)on2)CC1 has a reported slope of 0.00441

The compound listed as O=C(Nc1ccc(F)cc1)N(Cc1ccco1)Cc1cc2cc3c(cc2[nH]c1=O)OCO3 has a reported slope of 0.0056

The compound listed as O=C(C1CCCO1)N1CCN(S(=O)(=O)c2ccccc2)CC1 (stereo unspecified) has a reported slope of 0.00532

The compound listed as O=C(c1ccc(Br)cc1)N1CCN(S(=O)(=O)c2ccccc2)CC1 has a reported slope of 0.00631

The compound listed as CCSc1ccccc1C(=O)NCc1ccc(S(N)(=O)=O)cc1 has a reported slope of 0.00523

The compound listed as Cc1ccc2c(c1)sc1ncc(NC(=O)c3ccccc3)c(=O)n12 has a reported slope of 0.0047

The compound listed as CC1=C(C(=O)NCc2ccccn2)C2(CCC(C)CC2)OC1=O (stereo unspecified) has a reported slope of 0.00608

The compound listed as CCC(=O)N1C(=O)CCN(C(C)=O)c2ccccc21 has a reported slope of 0.0091

The compound listed as O=C(Nc1ccc(F)cc1F)NC1CC(=O)N(Cc2ccccc2)C1 (stereo unspecified) has a reported slope of 0.0068

The compound listed as COc1ccc(-c2nnc3sc(C(C)N4C(=O)c5ccccc5C4=O)nn23)cc1 (stereo unspecified) has a reported slope of 0.00329

The compound listed as CN(C)S(=O)(=O)N1CCN(C(=O)N(c2ccccc2)c2ccccc2)CC1 has a reported slope of 0.00704

The compound listed as O=C(CS(=O)(=O)c1cn(Cc2ccc(Cl)cc2)c2ccccc12)N1CCOCC1 has a reported slope of 0.00671

The compound listed as Cc1cccc(NC(=O)CC2CCC2)c1 has a reported slope of 0.00515

The compound listed as O=C1CC(c2cccnc2)c2cc3c(cc2N1)OCO3 (stereo unspecified) has a reported slope of 0.00697

The compound listed as O=C(CSc1nnc(-c2ccco2)n1CC1CCCO1)N1CCCCC1 (stereo unspecified) has a reported slope of 0.00431

The compound listed as Cc1ccc2c(c1)CCCN2C(=O)C1CCCO1 (stereo unspecified) has a reported slope of 0.00423

The compound listed as O=C(NCc1ccccc1)C1CCN(S(=O)(=O)N2CCCCCC2)CC1 has a reported slope of 0.00906

The compound listed as O=C(CSc1nnc(Cc2ccccc2)n1-c1cccc(Cl)c1)N1CCOCC1 has a reported slope of 0.00585

The compound listed as CC(=O)N1CCN(c2ccc(NC(=O)c3ccc(C(C)(C)C)cc3)cc2)CC1 has a reported slope of 0.00554

The compound listed as CC(=O)c1ccc(NC(=O)CCc2c(C)nc3ncnn3c2C)cc1 has a reported slope of 0.00573

The compound listed as O=C(C1CCCO1)N1CCc2ccccc21 (stereo unspecified) has a reported slope of 0.00647

The compound listed as Cc1cc(N2C(=O)CC(N3CCN(c4ccc(C(=O)c5cccs5)cc4)CC3)C2=O)no1 (stereo unspecified) has a reported slope of 0.00594

The compound listed as COc1ccc(OC)c(NC(=O)CS(=O)(=O)c2ccccc2)c1 has a reported slope of 0.00539

The compound listed as COCc1cc(C)nc(Nc2ccc(C)cc2C)c1C#N has a reported slope of 0.00615

The compound listed as CCn1nnnc1SCC(=O)N1c2ccccc2CCc2ccccc21 has a reported slope of 0.00737

The compound listed as CN1CCN(c2ncnc3c2cnn3-c2ccc(Cl)cc2)CC1 has a reported slope of 0.00771

The compound listed as Cc1ccc(CC2SC(=O)NC2=O)cc1Cl (stereo unspecified) has a reported slope of 0.00487

The compound listed as CC(=O)Nc1c(O)n(C)c2ccccc12 has a reported slope of 0.00514

The compound listed as COc1ccccc1N1CCN(c2cc(N3CCCC3)nc(C)n2)CC1 has a reported slope of 0.0045

The compound listed as Cc1cccc(OCc2nc(C#N)c(NCCN(C)C)o2)c1 has a reported slope of 0.00503

The compound listed as CCOC(=O)c1c(NC(=O)OC)sc2c1CCC2 has a reported slope of 0.00667

The compound listed as CN/C=C1\C(=O)C(C)(C)Oc2ccc3ccc(=O)oc3c21 has a reported slope of 0.00506

The compound listed as Cc1cc2ncn(S(=O)(=O)c3ccc(S(=O)(=O)N4CCOCC4)cc3)c2cc1C has a reported slope of 0.00432

The compound listed as Cc1sc2nc(SCC(=O)Nc3c(C)n(C)n(-c4ccccc4)c3=O)n(C)c(=O)c2c1C has a reported slope of 0.00842

The compound listed as Cc1cccc(NC(=O)c2cc3ccccc3o2)c1 has a reported slope of 0.00578
